Target: Acetylcholinesterase (Rattus norvegicus, UniProt P37136)
Sequence (P37136 whole entry): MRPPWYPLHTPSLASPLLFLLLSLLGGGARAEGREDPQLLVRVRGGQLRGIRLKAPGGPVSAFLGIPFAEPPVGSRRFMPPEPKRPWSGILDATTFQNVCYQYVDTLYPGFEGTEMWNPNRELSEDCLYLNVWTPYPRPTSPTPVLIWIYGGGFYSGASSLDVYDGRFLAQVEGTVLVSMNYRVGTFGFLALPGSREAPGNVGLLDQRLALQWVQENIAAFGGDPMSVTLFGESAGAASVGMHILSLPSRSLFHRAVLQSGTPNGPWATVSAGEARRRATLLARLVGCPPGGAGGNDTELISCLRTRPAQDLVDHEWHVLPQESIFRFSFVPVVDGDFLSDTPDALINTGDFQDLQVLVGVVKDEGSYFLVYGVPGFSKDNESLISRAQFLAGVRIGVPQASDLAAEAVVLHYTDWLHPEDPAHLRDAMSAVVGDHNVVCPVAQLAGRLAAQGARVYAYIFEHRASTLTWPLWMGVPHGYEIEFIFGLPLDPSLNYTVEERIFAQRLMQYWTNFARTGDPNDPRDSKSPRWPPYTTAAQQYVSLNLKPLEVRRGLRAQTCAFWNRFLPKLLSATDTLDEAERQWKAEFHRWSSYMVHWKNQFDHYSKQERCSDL
Quantity Name: IC50

stdin: Request body: readout IC50, system Acetylcholinesterase (Rattus norvegicus, UniProt P37136), query CC1=CC2Cc3nc(O)ccc3C(N)(C1)/C2=C/CF (stereo unspecified) . Return the value.
stdout: 10 µM
